- Measurement target: Glutathione peroxidase 1 (Homo sapiens) (UniProt P07203)
- Sequence (P07203 whole entry, looked up): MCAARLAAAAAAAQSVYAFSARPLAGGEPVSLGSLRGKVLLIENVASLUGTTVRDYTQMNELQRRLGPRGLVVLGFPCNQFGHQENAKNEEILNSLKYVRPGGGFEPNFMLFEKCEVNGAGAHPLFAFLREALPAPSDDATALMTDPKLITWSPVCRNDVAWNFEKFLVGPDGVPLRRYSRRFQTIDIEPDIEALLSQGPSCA
- Method: Primary qHTS Assay for Inhibitors of Recombinant Selenoprotein Glutathione Peroxidase 1 (GPX1) (AID 1845191); further: nearly all actives have a fitted effect of over 65% in size
- Conditions used: recombinant GPX1, GR-coupled NADPH fluorescence, 15 min; series mostly up to 48.8 µM
- Procedure: Assay Provider: Elias S.J. Arner MD PhD. Department of Medical Biochemistry and Biophysics Karolinska Institutet, Solna, Stockholm, Sweden […] 5; Detection; Fluorescence; ViewLux microplate reader, excitation 340 nm and emission 450 nm. […] 7; Detection; Fluorescence; ViewLux microplate reader, excitation 340 nm and emission 450 nm. […] 5. Initial fluorescence readout (t=0) at 340/450 nm was measured using a ViewLux multimodal detector (PerkinElmer, Waltham, MA). […]
Results filed as inconclusive are left out. The source made the active and inactive calls. The call rests on the fitted dose curve; in most records, active means well fitted inhibition curve with a large enough effect; inconclusive means small, poorly fitted or top-dose-only effect; inactive means flat fitted curve, though single readings scatter.
Please answer using one outcome listed in T = active, F = inactive

# example entries with known answers
>  <Item smiles>
C/C(=N\O)[C@@H](C)NCC(C)(C)CN[C@H](C)/C(C)=N/O

>  <Classification>
F

$$$$
>  <Item smiles>
O=C(CCCCC(=O)Nc1c(I)cc(I)c(C(=O)O)c1I)Nc1c(I)cc(I)c(C(=O)O)c1I

>  <Classification>
F

$$$$

Hey, what did the test say about `C/C(=C(/OCCOc1ccc(Cl)cc1)c1ccc(Cl)cc1Cl)n1ccnc1` ?
F

Now the molecule `CC(C)(C)CC(=O)OCC(=O)[C@@]1(O)CC[C@H]2[C@@H]3CCC4=CC(=O)C=C[C@]4(C)[C@H]3[C@@H](O)C[C@@]21C`
F

Now the molecule `CCOC(=O)c1ccc(NC(=O)CN2CCCCC2)cc1`
F

Now the molecule `CO/N=C(/C(=O)N[C@@H]1C(=O)N2C(C(=O)O)=C(Cn3nnc(C)n3)CS[C@H]12)c1csc(N)n1`
T

Now the molecule `CCCCN(CCN(CCCC)C(=O)N1CCOCC1)C(=O)N1CCOCC1`
F

Now the molecule `CCOC(=O)c1ccc(OCCN2C[C@H](O)[C@@H](O)[C@H](O)[C@H]2CO)cc1`
F

Now the molecule `CN(C)CCN(Cc1ccsc1)c1ccccn1`
F

###

- Method: Cell Viability - LYMP2-010 (AID 981);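 further: cells exposed to compound for 24 hours at 37 °C; nearly all actives have a fitted effect of over 55% in size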
- Conditions used: LYMP2-010 lymphoblastoid cell viability, qHTS; series mostly up to 92.2 µM
Records with an inconclusive call do not appear. Active and inactive are the calls of the source. The call rests on the fitted dose curve; in most records, active means well fitted cell-killing curve with a large enough effect; inconclusive means small, poorly fitted or top-dose-only effect; inactive means flat fitted curve, though single readings scatter.
Please answer using one outcome listed in TRUE = active, FALSE = inactive

>  <Compound>
Cc1cc(C(C)(C)C)c(O)c(C(C)(C)C)c1

>  <Classification>
FALSE

$$$$
>  <Compound>
C1=CC2C3C=CC(C3)C2C1 (stereo not given)

>  <Classification>
FALSE

$$$$
>  <Compound>
OCc1c[nH]c2ccccc12

>  <Classification>
FALSE

$$$$
>  <Compound>
Nc1ccc(O)cc1

>  <Classification>
TRUE

$$$$

Please look at the following compound next.
Hey, what did the test say about `Nc1cccc2c(N)cccc12` ?
FALSE

###

- Method: qHTS of pediatric cancer cell lines to identify multiple opportunities for drug repurposing: Primary screen for RD cells (AID 1347104); further: nearly all actives have a fitted effect of over 55% in size
- Conditions used: RD rhabdomyosarcoma viability, CellTiter-Glo luminescence, 48 h; series mostly up to 46 µM
Records with an inconclusive call do not appear. Active and inactive are the calls of the source. Calls come from the whole dose curve; as a rule, active = well fitted cell-killing curve with a large enough effect; inconclusive = small, poorly fitted or top-dose-only effect; inactive = flat fitted curve, though single readings scatter.
Please answer using one outcome listed in Yes = active, No = inactive

>  <Compound>
O=C1Nc2cc(Cl)ccc2Oc2ccccc21

>  <Classification>
No

$$$$
>  <Compound>
Cc1cc(OCCOCC[N+](C)(C)Cc2ccccc2)ccc1C(C)(C)CC(C)(C)C

>  <Classification>
Yes

$$$$
>  <Compound>
CC(C)Cc1ccc(C(C)C(=O)OCc2ccccn2)cc1 (stereo unspecified)

>  <Classification>
No

$$$$
>  <Compound>
CC(=O)OCC(=O)[C@@]1(O)[C@H](OC(C)=O)C[C@H]2[C@@H]3CCC4=CC(=O)C=C[C@]4(C)[C@@]3(F)[C@@H](O)C[C@@]21C

>  <Classification>
No

$$$$
>  <Compound>
C[C@@H](O[C@H]1OCCN(Cc2n[nH]c(=O)[nH]2)[C@H]1c1ccc(F)cc1)c1cc(C(F)(F)F)cc(C(F)(F)F)c1

>  <Classification>
Yes

$$$$
>  <Compound>
CN1C(CSCC(F)(F)F)Nc2cc(Cl)c(S(N)(=O)=O)cc2S1(=O)=O (stereo unspecified)

>  <Classification>
No

$$$$
>  <Compound>
CC(C)(C)c1nnc(NS(=O)(=O)c2ccccc2)s1

>  <Classification>
No

$$$$
>  <Compound>
C[C@@H]1C[C@H]2[C@@H]3CCC4=CC(=O)C=C[C@]4(C)[C@@]3(F)[C@@H](O)C[C@]2(C)[C@@]1(O)C(=O)COC(=O)c1ccncc1

>  <Classification>
No

$$$$

Hey, what did the test say about `C1N2CN3CN1CN(C2)C3` ?
No

Now the compound CC1(C)S[C@@H]2[C@H](NC(=O)C(c3ccccc3)S(=O)(=O)O)C(=O)N2[C@H]1C(=O)O (stereo partly specified)
No

Now the compound `CC(=O)N(CC(=O)N(C)C)c1ccccc1`
No

Now the compound `Cc1ccc(-c2ccccc2C#N)cc1`
No

Now the compound `C#Cc1ccc(-c2ccccc2F)cc1`
No

Now the compound `O=C(O)C1CCC1`
No

Now the compound `c1ccc(C(O[C@H]2CCCN(CCc3ccc4c(c3)OCO4)C2)c2ccccc2)cc1`
No

Now the compound `OC[C@]1(O)OC[C@@H](O)[C@H](O)[C@@H]1O`
No

Now the compound `COc1ccc(CCC(C)=O)cc1`
No

Now the compound `Fc1ccc(C(c2ccc(F)cc2)N2CCNCC2)cc1`
No

Recorded values, source PubChem BioAssay (NCATS).
